Please go through the items and note down their MIC.
tested on: hospital-acquired methicillin-resistant Staphylococcus aureus HA-MRSA (ATCC 33591); assay: microbe, parasite or virus in culture; format: cell-based; conditions: Staphylococcus aureus, 72 h, read-out: MIC, HA-MRSA

**Q:** Returns the measured MIC for the input compound. Input: CCCCCCCCCC[n+]1cccc(CN(Cc2ccc[n+](CCCCCCCCCC)c2)Cc2ccc[n+](CCCCCCCCCC)c2)c1
**A:** 0.5 µM

**Q:** Which MIC reading was recorded for the compound CCCCCCCCCC[n+]1ccc(CN(Cc2cc[n+](CCCCCCCCCC)cc2)Cc2cc[n+](CCCCCCCCCC)cc2)cc1 ?
**A:** 0.5 µM

**Q:** Consider the compound CCCCCCCCCCCCCC[n+]1ccc(CCCc2cc[n+](CCCCCCCCCCCCCC)cc2)cc1 and give its measured MIC.
**A:** 2 µM

**Q:** I would be grateful if you could share the reported MIC for c1cc(CCCc2ccncc2)ccn1 [Compound 2Pyr, 1,3-di-(4-pyridyl)propane, reference compound] .
**A:** > 250 µM

**Q:** Query (compound): CCCCCCCCCCCC[n+]1ccc(CCCc2cc[n+](CCCCCCCCCCCC)cc2)cc1 ; field requested: MIC
**A:** 0.5 µM

**Q:** Request the reported MIC associated with CCCCCCCC[n+]1ccc(CCCc2cc[n+](CCCCCCCC)cc2)cc1
**A:** 63 µM

**Q:** Item under review: CCCCCCCCCC[n+]1ccc(CCCc2cc[n+](CCCCCCCCCC)cc2)cc1 . Reported MIC?
**A:** 1 µM

----------
test system: hospital-acquired methicillin-resistant Staphylococcus aureus HA-MRSA (ATCC 33591); assay: microbe, parasite or virus in culture; format: cell-based; details: Staphylococcus aureus, 72 h, read-out: MIC, HA-MRSA
QUANTITY: MIC (µM)
Kindly answer with a numeric value in µM, unit omitted.

**Q:** Need MIC of CCCCCCCCCCC[n+]1ccc(CCCc2cc[n+](CCCCCCCCCCC)cc2)cc1 , thanks.
**A:** 0.5

**Q:** Using the record for CCCCCCCCCCCCCCCC[n+]1cccc(CN(Cc2ccc[n+](CCCCCCCCCCCCCCCC)c2)Cc2ccc[n+](CCCCCCCCCCCCCCCC)c2)c1 , report its MIC.
**A:** 2

**Q:** Look at this compound and give its reported MIC. CCCCCCCCCCCCC[n+]1cccc(CN(Cc2ccc[n+](CCCCCCCCCCCCC)c2)Cc2ccc[n+](CCCCCCCCCCCCC)c2)c1
**A:** 0.5

**Q:** // lookup MIC for CCCCCCCCCCCCCC[n+]1cccc(CN(Cc2ccc[n+](CCCCCCCCCCCCCC)c2)Cc2ccc[n+](CCCCCCCCCCCCCC)c2)c1
**A:** 1

**Q:** Fill in the blank: the reported MIC of CCCCCCCCCCC[n+]1cccc(CN(Cc2ccc[n+](CCCCCCCCCCC)c2)Cc2ccc[n+](CCCCCCCCCCC)c2)c1 is ____.
**A:** 0.5

**Q:** I would be grateful if you could share the reported MIC for CCCCCCCCCCCCC[n+]1ccc(CCCc2cc[n+](CCCCCCCCCCCCC)cc2)cc1 .
**A:** 0.5

**Q:** # input compound: c1cncc(CN(Cc2cccnc2)Cc2cccnc2)c1 [Compound M3Pyr, reference compound] ; wanted: its MIC
**A:** 250

----------
System: red blood cells (mechanically defibrinated sheep blood)
Assay: Red blood cell (RBC) lysis assay (Lysis20)
Assay type: cell-based
Conditions: sheep RBCs in PBS, 37° C., 1 hour, absorbance 540 nm; Table 1
Description: […] RBC lysis assays were performed on mechanically defibrinated sheep blood (Hemostat Labs: DSB030). […] The absorbance of the supernatant was measured with a UV spectrometer at a 540 nm wavelength.
Assign labels as follows, please: yes for Lysis20 (highest concentration at which <20% of RBCs are lysed) below 30 μm; no for Lysis20 (highest concentration at which <20% of RBCs are lysed) equal to or exceeding 30 μm.

**Q:** Find out if reported Lysis20 (highest concentration at which <20% of RBCs are lysed) for CCCCCCCCCCCCCCCCCC[n+]1ccc(CCCc2cc[n+](CCCCCCCCCCCCCCCCCC)cc2)cc1 is less than 30 μm
**A:** no

**Q:** Dear reviewer, please state whether c1cncc(CN(Cc2cccnc2)Cc2cccnc2)c1 [Compound M3Pyr, reference compound] has Lysis20 (highest concentration at which <20% of RBCs are lysed) strictly beneath 30 μm.
**A:** no

**Q:** Threshold test, Lysis20 (highest concentration at which <20% of RBCs are lysed) < 30 μm: CCCCCCCCCCCCCC[n+]1ccc(CCCc2cc[n+](CCCCCCCCCCCCCC)cc2)cc1
**A:** no

**Q:** In the record for CCCCCCCCCCCCC[n+]1cccc(CN(Cc2ccc[n+](CCCCCCCCCCCCC)c2)Cc2ccc[n+](CCCCCCCCCCCCC)c2)c1 , is Lysis20 (highest concentration at which <20% of RBCs are lysed) less than 30 μm?
**A:** yes

**Q:** Criterion: Lysis20 (highest concentration at which <20% of RBCs are lysed) strictly below 30 μm. Is it met by CCCCCCCCCCCCCCCC[n+]1ccc(CCCc2cc[n+](CCCCCCCCCCCCCCCC)cc2)cc1 ?
**A:** no

**Q:** Determine if CCCCCCCCCCCCC[n+]1ccc(CCCc2cc[n+](CCCCCCCCCCCCC)cc2)cc1 shows Lysis20 (highest concentration at which <20% of RBCs are lysed) strictly lower than 30 μm.
**A:** yes

**Q:** Dear colleague, could you confirm whether Lysis20 (highest concentration at which <20% of RBCs are lysed) of CCCCCCCCCCCC[n+]1cccc(CN(Cc2ccc[n+](CCCCCCCCCCCC)c2)Cc2ccc[n+](CCCCCCCCCCCC)c2)c1 falls below 30 μm? Thanks.
**A:** yes
